Molecular target: T1, recombinant soluble human TREM2 protein (human TREM2 ECD-FlagHis) (human, UniProt Q9NZC2 19-174)
T1 sequence: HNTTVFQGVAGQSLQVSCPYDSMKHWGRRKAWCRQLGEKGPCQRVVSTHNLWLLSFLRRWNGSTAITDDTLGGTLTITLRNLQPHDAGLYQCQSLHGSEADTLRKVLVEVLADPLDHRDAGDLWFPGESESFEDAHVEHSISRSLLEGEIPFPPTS
Experiment: Octet BLI binning; competitor: load Ab 25F12
Here, each record is paired with measured sandwich binding signal data.
Lab note: write the figure by itself, no unit.

The following binders have reported results that may help.
| binder | sandwich binding signal |
| --- | --- |
| 26C10 (antibody, human IgG2, V domains shown, human IgG2 from hybridoma) VH: EVQLVESGGALVQPGGSLRLSCAASGFTFSSFGMSWVRQAPGKGLEWVSYISSSSFTIYYADSVKGRFTISRDNAKNSFYLQMNSLRDEDTAVYFCVREGGITMVRGVSSYGMDVWGQGTTVTVSS VL: SFELTQPPSVSVSPGQTASITCSGDKLGDKYVCWYQQKPGQSPMLVIYQDTKRPSGIPERFSGSNSGNTATLTISGTQAMDEADYYCQAWDSSTVVFGGGTKLTVL | 0.418 |
| 16B8 (antibody, human IgG4, V domains shown, human IgG4 (G4) from hybridoma) VH: QVQLVQSGAEVKKPGASVKVSCKASGYTFTNYGISWVRQAPGQGLEWMGWISAYNGNTNYAQKLQGRVTMTTDTSTSTVYMELRSLRSDDTAVYYCARRGYSYGSFDYWGQGTLVTVSS VL: DIQMTQSPSSVSASVGDRVTVTCRASQDINSWLAWYQQKPGKAPKLLIYAASSLQTGVPSRFSGSGSGTDFTLTISSLQPEDFATYSCQQSNSFPITFGQGTRLEIK | 0.399 |
| 4C5 (antibody, V domains shown, human IgG2 from hybridoma) VH: EVQLVQSGAEVKKPGESLKISCKGSGHSFTNYWIAWVRQMPGKGLEWMGIIYPGDSDTRYSPSFQGQVTISADKSISTAYLQWSSLKASDTAVYFCARQRTFYYDSSGYFDYWGQGTLVTVSS VL: DIQMTQSPSSVSASVGDRVTITCRASQGISNWLAWYQQKPGKAPKLLIYAASSLQVGVPLRFSGSGSGTDFTLTISSLQPEDFATYYCQQADSFPRNFGQGTKLEIK | 0.265 |
| 13E7 (antibody, human IgG2, V domains shown, human IgG2 from hybridoma) VH: EVQLVQSGAEVKKPGESLMISCKGSGYSFTSYWIGWVRQMPGKGLEWMGIIYPGDSDTRYSPSFQGQVTISADKSISTAYLQWSSLKASDTAMYFCARRRQGIWGDALDFWGQGTLVTVSS VL: EIVMTQSPATLSVSPGERATLSCRASQSVSSNLAWFQQKPGQAPRLLIYGASTRATGIPARFSVSGSGTEFTLTISSLQSEDFAVYYCLQDNNWPPTFGPGTKVDIK | 0.278 |
| 6E7 (antibody, human IgG2, V domains shown, human IgG2 from hybridoma) VH: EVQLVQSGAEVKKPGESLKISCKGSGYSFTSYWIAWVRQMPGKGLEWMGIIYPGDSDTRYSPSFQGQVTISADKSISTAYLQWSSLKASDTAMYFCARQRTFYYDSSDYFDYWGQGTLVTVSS VL: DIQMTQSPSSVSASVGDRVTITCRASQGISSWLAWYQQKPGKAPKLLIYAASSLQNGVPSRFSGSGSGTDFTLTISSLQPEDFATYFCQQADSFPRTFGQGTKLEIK | 0.371 |
| 24F4 (antibody, human IgG2, V domains shown, human IgG2 from hybridoma) VH: EVQLVQSGAEVKKPGESLKISCKGSGYTFTSYWIGWVRQMPGKGLEWMGIIYPGDSDTRYSPSFQGQVTISVDKSSSTAYLQWSSLKASDTAIYYCTRQAIAVTGLGGFDPWGQGTLVTVSS VL: EIVLTQSPGTLSLSPGERATLSCRASQSVSSSYLAWYQQKPGQAPRLLIYGASSRATGIPDRFSGSGSGTDFTLTISRLEPEDFALYYCQQYDTSPFTFGPGTKVDIK | 0.244 |

What sandwich binding signal value was documented for this binder, 5E3 (antibody, human IgG2, V domains shown, human IgG2 from hybridoma) VH: QVQLVQSGAEVKKPGASVKVSCKASGYTFTGYYIHWVRQAPGLGLEWMGWINPYSGGTTSAQKFQGRVTMTRDTSISSAYMELSRLRSDDTAVYYCARDGGYLALYGTDVWGQGTTVTVSS VL: DIQMTQSPSSLSASVGDRVTITCRASQGISNYLAWFQQKPGKAPKSLIYAASSLQSGVPSKFSGSGSGTDFTLTISSLQPEDFATYYCQQYSTYPFTFGPGTKVDIK ?
0.38
